Data origin: ChEMBL document CHEMBL3351598

# Protocol Text: AUC in beagle dog at 10 mg/kg, iv bolus dose
# Type: ADME, organism-based, Canis lupus familiaris
# Set-up: dose 10 mg/kg, route intravenous
# Protocol Conditions: plasma
Recorded AUC for the following molecules
# value in ng·h/mL; strip the unit string

| Smiles Repr | Property Measured | Reading Unit | Quantitative Readout |
| --- | --- | --- | --- |
| N#CC1(c2cc(CCO)cc(-c3ccnc4[nH]nc(C(F)(F)F)c34)c2)CC1 | AUC | ng·h/mL | 130 |

# next molecule below
// recorded AUC for N#CC1(c2cc(C[C@@H](O)CO)cc(-c3ccnc4[nH]nc(C(F)(F)F)c34)c2)CC1 : 4400
